IC50 values by entry
tested on: P. falciparum 3D7 growth, pLDH absorbance; test: blood-stage malaria parasite growth potency – strain 3D7, dose response (AID 2305)
The figure you give is taken to be in µM; do not add the unit.

CCC[C@@H]([C@@H](CC1CCCCC1)C(=O)N[C@H](C(=O)Nc1nccs1)C(C)(C)SCCNC(=O)OCC)N(O)C=O    0.08
CC(O)C1CCCCN1C(=O)c1cccc(-c2ccc(-c3nc4ccc(F)cc4[nH]3)cc2)c1 (stereo not given)    0.74

Read the next record carefully.
Provide the reported IC50 (system: P. falciparum 3D7 growth, pLDH absorbance) for CCN(CC)CCN(Cc1ccc(-c2ccc(C(F)(F)F)cc2)cc1)C(=O)Cn1c(CCc2c(F)ccc(F)c2F)nc(=O)c2ccccc21
0.24

###

system: P. falciparum 3D7 growth, pLDH absorbance; experiment: blood-stage malaria parasite growth potency – strain 3D7, dose response (AID 2305)
observation type: IC50 (nM)
Write the value in nM as a bare number.

CN1CCC(NCc2ccc(-c3cccc(S(=O)(=O)NCc4ccccc4)c3)cc2)CC1    320
FC(F)(F)c1ccc2nc(-c3cccc(-c4cccc(CNCc5cnn(-c6ccccc6)n5)c4)c3)[nH]c2c1    550

Please indicate IC50 recorded for Cc1cccc(NC(=O)Nc2ccc(I)c(OCCN(C)C)c2)c1C
730

Item CC(CN(C)C)C(=O)Nc1cccc(-c2ccc(-c3nc4ccccc4[nH]3)cc2)c1 (centres undefined) : provide IC50
710

###

test system: P. falciparum 3D7 growth, pLDH absorbance; assay: blood-stage malaria parasite growth potency – strain 3D7, dose response (AID 2305)
Listing of entries alongside the reported IC50.
Reply with just the number (in nM).

Reference set, count: 3
CC[C@H](N=C(Nc1ccc(C#N)cc1O)Nc1cccc(Cl)c1Cl)c1ccccc1    820
CC1CCN(c2nc(C(=O)Nc3ccc(F)cc3C(F)(F)F)c(C(C)C)s2)CC1    230
CCOC(=O)c1cccc(NC(=O)Nc2cccc(-c3ncc(OCCCN)c4c3nc(-c3nonc3N)n4CC)c2)c1    890

Shifting focus to the compound that follows.
Jot down IC50 (P. falciparum 3D7 growth, pLDH absorbance) of O=C(Cn1c(CCc2cccc(F)c2F)cc(=O)c2cccnc21)N(CCN1CCCC1)Cc1ccc(-c2ccc(C(F)(F)F)cc2)cc1 .
890

###

tested on: P. falciparum 3D7 growth, pLDH absorbance; experiment: blood-stage malaria parasite growth potency – strain 3D7, dose response (AID 2305)
observation type: IC50 (nM)
Give a bare numeral; the unit nM is implied.

Cc1cc2c(NC(=O)NC3CCN(Cc4ccc(Cl)c(Cl)c4)CC3)cccc2cn1    680
OCC1CCN(Cc2ccc(-c3ccc(-c4nc5ccccc5[nH]4)cc3)cc2)CC1    900
O=C1COc2ccc(CNC3CCC(O)(CCc4ccnc5cc6c(cc45)OCCO6)CC3)nc2N1 (centres undefined)    930
CCc1nnc2sc(-c3cccc(NC(=O)c4ccc(OC)c(Cl)c4)c3)nn12    1140
Cc1cc(OCc2ccncc2)cc2c1C(=O)CC(C)(C)O2    180
CCCCCOc1ccc(N2C(N)=NC(N)=NC2(C)C)cc1    200

Name the recorded IC50 of the compound listed here: Cc1cc(-c2ccc(S(=O)(=O)Nc3cc4c(cc3OC(C)C)CCN(C)CC4)cc2)ccc1Cl
900

Hello, please tell me recorded IC50 for this one: COc1ccc(C2CC(=O)C3=C(C2)NC(C)=C(C(=O)OC(C)C)C3c2c(F)cccc2Cl)cc1OC (centres undefined)
820

Supply IC50 value. Item: COc1cc2nc(N3CCC(CNC(=O)c4ccc(-c5ccc(C(=O)N(C)C)cc5OCCO)cc4)CC3)nc(N)c2cc1OC
640
